These measurements were taken from a collection of fitness landscapes (doi:10.1016/j.celrep.2020.107928).

B1: Caulobacter ParB omega fusion; a variant is named by its letters at X, in order, B8GW30 (parent)
chain: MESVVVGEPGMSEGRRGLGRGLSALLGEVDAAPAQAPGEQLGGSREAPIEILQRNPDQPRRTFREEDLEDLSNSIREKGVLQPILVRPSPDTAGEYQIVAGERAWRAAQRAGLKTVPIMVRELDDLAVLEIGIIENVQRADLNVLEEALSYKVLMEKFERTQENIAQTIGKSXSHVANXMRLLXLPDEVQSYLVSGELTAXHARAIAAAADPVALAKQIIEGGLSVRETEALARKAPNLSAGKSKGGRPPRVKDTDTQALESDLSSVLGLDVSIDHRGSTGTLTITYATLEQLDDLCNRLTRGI

Variants of: B1
method.summary: one-hybrid fitness for binding parS DNA (scaled: cognate 1, non-cognate 0); higher = stronger binding
particulars: with parS DNA site
The full ranking holds about 81,000 sequences; the median of “one-hybrid fitness for binding parS DNA” is about -0.17, and the highest 2% start at about 0.51. The list comes from a sample in which the highest values are over-represented; it also holds close analogues and randomly drawn sequences.
measure.name: one-hybrid fitness for binding parS DNA

Below, 4 variants whose answers are already recorded.
mutation.key: QGYA
one-hybrid fitness for binding parS DNA: ≤ 0.2

mutation.key: RTYH
one-hybrid fitness for binding parS DNA: 0.266

mutation.key: YLIW
one-hybrid fitness for binding parS DNA: ≤ 0.2

mutation.key: AALF
one-hybrid fitness for binding parS DNA: ≤ 0.2

For the 7 variants below, give their one-hybrid fitness for binding parS DNA values.
1. KNVC
2. GSYT
3. RRPY
4. RTSH
5. EPDT
6. EKSD
7. MPRT

Result block:
≤ 0.2
≤ 0.2
0.315
≤ 0.2
≤ 0.2
≤ 0.2
≤ 0.2

For the 6 variants below, give their one-hybrid fitness for binding parS DNA values.
1. QSGL
2. ILSS
3. QPVT
4. ADVS
5. RTLC
6. RMWK

Result block:
≤ 0.2
≤ 0.2
≤ 0.2
≤ 0.2
0.982
≤ 0.2

For the 4 variants below, give their one-hybrid fitness for binding parS DNA values.
1. QDSQ
2. DVGK
3. RTLP
4. HCSV

Result block:
["≤ 0.2", 0.252, "≤ 0.2", "≤ 0.2"]

Query block: Would you mind telling me what one-hybrid fitness for binding parS DNA value was observed for RTLH ?
Result block: 0.232
